assay-target: T1, His-tagged cynomolgous macaque BCMA (Acro Biosystems, BCA-C52H7) (cynomolgus macaque, UniProt Q02223 1-54 (human entry))
T1 construct: Bought protein; also called cyno BCMA; CyBCMA; not shown: His tag
assay-notes: BLI, His-tagged cynomolgus BCMA on HIS1K tip
Reported values of Cyno BCMA response for individual entries
Format: numeric value only, no unit, no commentary.

# example entries with known answers
binder	Cyno BCMA response
539-SP1-C8 hIgG1 (antibody, V domains shown, Human-mouse chimeric antibody, human IgG1 format; also called [2]) VH: EVQLQQSGPELVKPGSSVKMSCKASGYTFTNYVMHWVKQKPGQGLEWIGYILPYNDGTKYNEKFKGKATLTSDKSSSTAYMEFSVLTSEDSAVYYCARYDYEGSFDYWGQGTALTVSS VL: DIQMTQTTSSLSASLGDRVTISCRASQDISNYLNWYQQKPDGTVKLLMCYTSRLHSGVPSRFSGSGSGTDFSLTISNLEQEDIATYFCQQGNTFPPTFGGGTKLEIKR	0.456
J6M0 (antibody, V domains shown, also called J6M0-hIgG1; anti-BCMA) VH: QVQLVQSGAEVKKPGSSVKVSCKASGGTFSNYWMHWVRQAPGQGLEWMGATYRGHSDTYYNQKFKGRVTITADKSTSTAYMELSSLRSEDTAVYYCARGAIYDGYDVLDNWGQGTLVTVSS VL: DIQMTQSPSSLSASVGDRVTITCSASQDISNYLNWYQQKPGKAPKLLIYYTSNLHSGVPSRFSGSGSGTDFTLTISSLQPEDFATYYCQQYRKLPWTFGQGTKLEIK	2.16

Shifting focus to the binder that follows.
Lookup result for 552-LN2-E6 hIgG1 (antibody, V domains shown, Human-mouse chimeric antibody, human IgG1 format; also called [8]) VH: QIQLVQSGPELKKPGETVKISCMASGYTFTDYSVRWVKQAPGKGLEWMGWINTETGEPTYADDFKGRFAFSLETSASTAYLQINNLKNEDTATYFCAISYYYALDYWGHGTSVTVSS VL: DIVLTQSPASLTVSLGQRATISCRASKSVSTSVYSFLHWYQQKPGQPPKLLIYLASNLESGVPARFSGSGSGTDFTLNIHPVEEEDAATYYCQHSRELPRTFGGGTKLEIKR ; measured Cyno BCMA response: 1.55
